Experiment: tissue drug levels of free and liposomal vincristine (radioimmunoassay)
Assay type: in vivo, CD2 F1 mice
Conditions: mouse, lung, iv, 1 mg/kg, lung; 1.0 mg; 24h; read-out: vincristine level, lung
outcome measure: concentration at 24 h (ng/g)
Lab book: enter the figure in ng/g, no units written.

Q: Requested read-out: concentration at 24 h. Entry: CC[C@]1(O)C[C@H]2CN(CCc3c([nH]c4ccccc34)[C@@](C(=O)OC)(c3cc4c(cc3OC)N(C=O)[C@H]3[C@@](O)(C(=O)OC)[C@H](OC(C)=O)[C@]5(CC)C=CCN6CC[C@]43[C@@H]65)C2)C1 [free vincristine, vincristine]
Result: 4
